# credit: ChEMBL document CHEMBL4038268

# targetDesc: Bromodomain and PHD finger-containing protein 3 (Homo sapiens, UniProt Q9ULD4)
# Sequence (Q9ULD4 whole entry, the tested form may be a part): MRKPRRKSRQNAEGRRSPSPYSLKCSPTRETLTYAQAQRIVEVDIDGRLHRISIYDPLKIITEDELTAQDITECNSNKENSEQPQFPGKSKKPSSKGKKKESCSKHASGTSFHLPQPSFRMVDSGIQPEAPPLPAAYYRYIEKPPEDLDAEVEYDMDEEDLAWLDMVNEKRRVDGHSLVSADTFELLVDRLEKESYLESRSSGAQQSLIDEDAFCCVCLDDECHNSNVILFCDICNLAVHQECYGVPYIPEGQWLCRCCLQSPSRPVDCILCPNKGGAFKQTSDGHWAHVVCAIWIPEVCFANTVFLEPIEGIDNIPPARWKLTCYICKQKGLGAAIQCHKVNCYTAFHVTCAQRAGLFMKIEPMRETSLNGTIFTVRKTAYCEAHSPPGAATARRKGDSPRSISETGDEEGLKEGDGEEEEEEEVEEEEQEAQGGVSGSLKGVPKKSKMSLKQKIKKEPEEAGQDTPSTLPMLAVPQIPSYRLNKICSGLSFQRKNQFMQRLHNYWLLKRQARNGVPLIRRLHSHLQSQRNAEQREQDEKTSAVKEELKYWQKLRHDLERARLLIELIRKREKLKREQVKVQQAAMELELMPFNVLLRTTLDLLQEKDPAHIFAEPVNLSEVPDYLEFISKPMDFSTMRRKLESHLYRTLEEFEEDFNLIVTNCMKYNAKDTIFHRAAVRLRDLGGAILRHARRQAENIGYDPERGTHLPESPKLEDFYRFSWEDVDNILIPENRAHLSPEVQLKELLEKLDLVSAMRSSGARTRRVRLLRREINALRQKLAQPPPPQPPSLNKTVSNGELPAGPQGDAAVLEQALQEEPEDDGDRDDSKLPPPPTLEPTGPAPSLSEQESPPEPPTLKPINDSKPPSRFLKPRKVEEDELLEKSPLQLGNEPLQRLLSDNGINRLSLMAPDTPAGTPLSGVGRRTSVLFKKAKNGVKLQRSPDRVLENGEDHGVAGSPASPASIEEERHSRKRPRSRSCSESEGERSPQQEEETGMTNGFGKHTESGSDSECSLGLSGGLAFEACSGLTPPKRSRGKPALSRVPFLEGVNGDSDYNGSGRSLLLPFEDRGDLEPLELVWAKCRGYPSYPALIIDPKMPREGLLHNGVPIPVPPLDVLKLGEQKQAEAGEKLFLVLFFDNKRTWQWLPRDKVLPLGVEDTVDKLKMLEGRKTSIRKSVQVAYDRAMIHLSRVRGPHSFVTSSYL
# experimentalProtocol: Inhibition of human BRPF3 (E588 to G701 residues) expressed in bacterial expression system by BROMOscan assay
pIC50: −log10 of the molar value.
compounds and their reported pIC50

Entry under review: Cc1[nH]c(-c2cc(S(C)(=O)=O)ccc2Oc2ccc(F)cc2F)c2c1C(=O)NCC2 . Reported pIC50?
< 5.00

Entry under review: Cn1cc(-c2cc(S(C)(=O)=O)ccc2Oc2ccc(F)cc2F)c2cc[nH]c(=O)c21 . Reported pIC50?
< 5.00

Entry under review: Cc1[nH]c(-c2cc(NS(C)(=O)=O)ccc2Oc2ccccc2)c2c1C(=O)CCC2 . Reported pIC50?
< 5.00
